# Assay: Plasma protein binding
# Format: in vitro ADME
# Test conditions: mouse, pH 7.4, % bound, read-out: Mouse PPB (converted)
Recorded metric: fraction unbound at 6 h, 2 μM

[[record]]
compound = "Cn1nccc1C(=O)Nc1nc2ccc(C#N)cc2n1CC(F)(F)F [Compound 30]"
test_value = 0.042

[[record]]
compound = "Cn1nc(C(F)(F)F)cc1C(=O)Nc1nc2ccc(C#N)cc2n1CC(F)(F)F [Compound 39]"
test_value = 0.006

[[record]]
compound = "N#Cc1ccc2nc(NC(=O)c3ccnc(C(F)(F)F)c3)n(CC(F)(F)F)c2c1 [Compound 44]"
test_value = 0.008

[[record]]
compound = "Cn1nccc1C(=O)Nc1nc2ccc(C#N)cc2n1CC(C)(C)C [Compound 29]"
test_value = 0.029


* * *

# Assay: Mouse single-dose pharmacokinetics
# Format: in vivo
# Test conditions: female, BALB/c, plasma, single oral dose 50 mg/kg
compounds and their reported AUC(0-t)
Recorded metric: AUC(0-t) (ng·h/mL)

[[record]]
structure_smiles_string = "Cn1nccc1C(=O)Nc1nc2ccc(C#N)cc2n1CC(C)(C)C"
test_value = 35400

[[record]]
structure_smiles_string = "Cn1nc(C(F)(F)F)cc1C(=O)Nc1nc2ccc(C#N)cc2n1CC(F)(F)F"
test_value = 63700

[[record]]
structure_smiles_string = "Cn1nccc1C(=O)Nc1nc2ccc(C#N)cc2n1CC(F)(F)F"
test_value = 25200


* * *

# Study system: ETB (Homo sapiens, UniProt P24530)
# Sequence (P24530 27-442): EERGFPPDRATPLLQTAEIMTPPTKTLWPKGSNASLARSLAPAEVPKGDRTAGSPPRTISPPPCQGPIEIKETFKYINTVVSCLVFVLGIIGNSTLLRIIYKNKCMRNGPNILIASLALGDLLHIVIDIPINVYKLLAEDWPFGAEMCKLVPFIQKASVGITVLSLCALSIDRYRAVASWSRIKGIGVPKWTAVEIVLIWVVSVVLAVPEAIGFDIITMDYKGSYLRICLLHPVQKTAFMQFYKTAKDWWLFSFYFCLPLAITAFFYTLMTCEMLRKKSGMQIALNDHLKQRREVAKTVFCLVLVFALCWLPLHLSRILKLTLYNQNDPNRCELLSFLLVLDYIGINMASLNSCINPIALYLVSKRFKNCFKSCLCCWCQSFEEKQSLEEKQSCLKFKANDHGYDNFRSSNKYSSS
# Assay: Bioprofiling 6pt Ag ETB CHO
# Test conditions: agonist readout
compounds and their reported EC50
Recorded metric: EC50

[[record]]
structure_smiles_string = "Cn1nccc1C(=O)Nc1nc2ccc(C#N)cc2n1CC(F)(F)F"
study_system = "ETB (Homo sapiens, UniProt P24530)"
test_value = "> 10 µM"

[[record]]
structure_smiles_string = "N#Cc1ccc2nc(NC(=O)c3ccc(C(F)(F)F)nc3)n(CC(F)(F)F)c2c1"
study_system = "ETB (Homo sapiens, UniProt P24530)"
test_value = "> 10 µM"

[[record]]
structure_smiles_string = "Cn1nccc1C(=O)Nc1nc2ccc(C#N)cc2n1CC(C)(C)C"
study_system = "ETB (Homo sapiens, UniProt P24530)"
test_value = "> 10 µM"

[[record]]
structure_smiles_string = "N#Cc1ccc2nc(NC(=O)c3ccnc(C(F)(F)F)c3)n(CC(F)(F)F)c2c1"
study_system = "ETB (Homo sapiens, UniProt P24530)"
test_value = "> 10 µM"

[[record]]
structure_smiles_string = "COc1ccc(C(=O)Nc2nc3ccc(C#N)cc3n2CC(F)(F)F)cn1"
study_system = "ETB (Homo sapiens, UniProt P24530)"
test_value = "> 10 µM"

[[record]]
structure_smiles_string = "Cn1nc(C(F)(F)F)cc1C(=O)Nc1nc2ccc(C#N)cc2n1CC(F)(F)F"
study_system = "ETB (Homo sapiens, UniProt P24530)"
test_value = "> 10 µM"


* * *

# Assay: Kinetic solubility
# Type: physicochemical
# Test conditions: PBS pH 2
compounds and their reported KS PBS - pH 2
Recorded metric: KS PBS - pH 2 (ug/mL)

[[record]]
structure_smiles_string = "COCCn1c(NC(=O)c2ccnn2C)nc2ccc(C#N)cc21"
recorded_metric = "KS PBS - pH 2"
test_value = 7.77

[[record]]
structure_smiles_string = "Cn1nccc1C(=O)Nc1nc2ccc(C#N)cc2n1CC(C)(C)C"
recorded_metric = "KS PBS - pH 2"
test_value = 1.77

[[record]]
structure_smiles_string = "N#Cc1ccc2nc(NC(=O)c3ccnc(C(F)(F)F)c3)n(CC(F)(F)F)c2c1"
recorded_metric = "KS PBS - pH 2"
test_value = 0.41

[[record]]
structure_smiles_string = "COc1ccc(C(=O)Nc2nc3ccc(C#N)cc3n2CC(F)(F)F)cn1"
recorded_metric = "KS PBS - pH 2"
test_value = 0.38

[[record]]
structure_smiles_string = "Cn1nccc1C(=O)Nc1nc2cncnc2n1CC(F)(F)F"
recorded_metric = "KS PBS - pH 2"
test_value = 64.44

[[record]]
structure_smiles_string = "Cn1nccc1C(=O)Nc1nc2ccc(C#N)cc2n1CC(F)(F)F"
recorded_metric = "KS PBS - pH 2"
test_value = 10.45

[[record]]
structure_smiles_string = "N#Cc1ccc2nc(NC(=O)c3ccc(C(F)(F)F)nc3)n(CC(F)(F)F)c2c1"
recorded_metric = "KS PBS - pH 2"
test_value = 0.41

[[record]]
structure_smiles_string = "Cn1nc(C(F)(F)F)cc1C(=O)Nc1nc2ccc(C#N)cc2n1CC(F)(F)F"
recorded_metric = "KS PBS - pH 2"
test_value = 0.42


* * *

compounds and their reported Mouse plasma stability
# Assay: Plasma stability
# Type: in vitro ADME, mouse
# Test conditions: % remaining after 6h
Recorded metric: Mouse plasma stability

[[record]]
compound = "N#Cc1ccc2nc(NC(=O)c3ccnc(C(F)(F)F)c3)n(CC(F)(F)F)c2c1 [Compound 44]"
recorded_metric = "Mouse plasma stability"
test_value = "111%"

[[record]]
compound = "Cn1nccc1C(=O)Nc1nc2ccc(C#N)cc2n1CC(C)(C)C [Compound 29]"
recorded_metric = "Mouse plasma stability"
test_value = "99.8%"

[[record]]
compound = "Cn1nccc1C(=O)Nc1nc2ccc(C#N)cc2n1CC(F)(F)F [Compound 30]"
recorded_metric = "Mouse plasma stability"
test_value = "107%"

[[record]]
compound = "Cn1nc(C(F)(F)F)cc1C(=O)Nc1nc2ccc(C#N)cc2n1CC(F)(F)F [Compound 39]"
recorded_metric = "Mouse plasma stability"
test_value = "111%"


* * *

compounds and their reported pIC50
# Test system: Leishmania infantum MHOM/MA(BE)/67/ITMAP263 amastigotes
# Assay: L. infantum intracellular amastigote assay in PMM
# Assay type: cell-based
# Test conditions: Leishmania infantum, S1 Data; read-out: L. infantum IC50
# Description: Leishmania infantum MHOM/MA(BE)/67/ITMAP263 amastigotes were collected from the spleen of infected donor Golden hamsters. Primary peritoneal mouse macrophages (PMM) were used as host cells for in vitro assays. […] For the antileishmania in vitro assays, 3×10^4 PMM/well were seeded in 96-well plates. […] Parasite burdens were assessed using an inverted microscope after Giemsa staining. […]
pIC50: −log10 of the molar value.
Recorded metric: pIC50

[[record]]
compound = "CC(C)(C)Cn1c(NC(=O)c2ccn[nH]2)nc2ccc(C#N)cc21"
study_system = "Leishmania infantum MHOM/MA(BE)/67/ITMAP263 amastigotes"
readout_relation = "="
test_value = 4.42

[[record]]
compound = "Cc1ccc(C(=O)Nc2nc3ccc(C#N)cc3n2CC(F)(F)F)cn1"
study_system = "Leishmania infantum MHOM/MA(BE)/67/ITMAP263 amastigotes"
readout_relation = "="
test_value = 5.33

[[record]]
compound = "CC(C)(C)Cn1c(NC(=O)Cc2ccc(C(F)(F)F)cc2)nc2ccccc21"
study_system = "Leishmania infantum MHOM/MA(BE)/67/ITMAP263 amastigotes"
readout_relation = "="
test_value = 5.09

[[record]]
compound = "Cn1nccc1C(=O)Nc1nc2ccc(C#N)cc2n1C1CCOCC1"
study_system = "Leishmania infantum MHOM/MA(BE)/67/ITMAP263 amastigotes"
readout_relation = "<"
test_value = 4.19

[[record]]
compound = "Cn1ccc(C(=O)Nc2nc3ccc(C#N)cc3n2CC(F)(F)F)n1"
study_system = "Leishmania infantum MHOM/MA(BE)/67/ITMAP263 amastigotes"
readout_relation = "="
test_value = 4.59

[[record]]
compound = "CCCn1c(NC(=O)Cc2ccc(F)cc2)nc2cc(F)c(F)cc21"
study_system = "Leishmania infantum MHOM/MA(BE)/67/ITMAP263 amastigotes"
readout_relation = "="
test_value = 5.66

[[record]]
compound = "COCCn1c(NC(=O)c2ccnn2C)nc2ccc(C#N)cc21"
study_system = "Leishmania infantum MHOM/MA(BE)/67/ITMAP263 amastigotes"
readout_relation = "="
test_value = 4.33

[[record]]
compound = "N#Cc1ccc2nc(NC(=O)c3ccc(C(F)(F)F)nc3)n(CC(F)(F)F)c2c1"
study_system = "Leishmania infantum MHOM/MA(BE)/67/ITMAP263 amastigotes"
readout_relation = "="
test_value = 5.37

[[record]]
compound = "CCCn1c(NC(=O)Cc2ccc(F)cc2)nc2ccc(C#N)cc21"
study_system = "Leishmania infantum MHOM/MA(BE)/67/ITMAP263 amastigotes"
readout_relation = "="
test_value = 4.34

[[record]]
compound = "Cn1nccc1C(=O)Nc1nc2ccc(C#N)cc2n1CC(C)(C)O"
study_system = "Leishmania infantum MHOM/MA(BE)/67/ITMAP263 amastigotes"
readout_relation = "="
test_value = 4.44

[[record]]
compound = "CCCn1c(NC(=O)Cc2ccc(Cl)cc2)nc2cc(C(F)(F)F)ccc21"
study_system = "Leishmania infantum MHOM/MA(BE)/67/ITMAP263 amastigotes"
readout_relation = "="
test_value = 5.70

[[record]]
compound = "Cn1c(NC(=O)Cc2ccc(Cl)cc2)nc2ccccc21"
study_system = "Leishmania infantum MHOM/MA(BE)/67/ITMAP263 amastigotes"
readout_relation = "="
test_value = 4.49

[[record]]
compound = "Cn1nncc1C(=O)Nc1nc2ccc(C#N)cc2n1CC(F)(F)F"
study_system = "Leishmania infantum MHOM/MA(BE)/67/ITMAP263 amastigotes"
readout_relation = "="
test_value = 4.83

[[record]]
compound = "COc1ccc(C(=O)Nc2nc3ccc(C#N)cc3n2CC(F)(F)F)cn1"
study_system = "Leishmania infantum MHOM/MA(BE)/67/ITMAP263 amastigotes"
readout_relation = "="
test_value = 5.16

[[record]]
compound = "Cn1nccc1C(=O)Nc1nc2ccc(C#N)cc2n1CC(F)F"
study_system = "Leishmania infantum MHOM/MA(BE)/67/ITMAP263 amastigotes"
readout_relation = "="
test_value = 5.06

[[record]]
compound = "CCCn1c(NC(=O)Cc2ccc(F)cc2)nc2ccccc21"
study_system = "Leishmania infantum MHOM/MA(BE)/67/ITMAP263 amastigotes"
readout_relation = "="
test_value = 4.83

[[record]]
compound = "Cn1nccc1C(=O)Nc1nc2ccc(C#N)cc2n1CCF"
study_system = "Leishmania infantum MHOM/MA(BE)/67/ITMAP263 amastigotes"
readout_relation = "="
test_value = 4.55

[[record]]
compound = "CC(C)(C)Cn1c(NC(=O)c2ccn(CCO)n2)nc2ccc(C#N)cc21"
study_system = "Leishmania infantum MHOM/MA(BE)/67/ITMAP263 amastigotes"
readout_relation = "<"
test_value = 4.19

[[record]]
compound = "Cn1cc(C(=O)Nc2nc3ccc(C#N)cc3n2CC(F)(F)F)cn1"
study_system = "Leishmania infantum MHOM/MA(BE)/67/ITMAP263 amastigotes"
readout_relation = "="
test_value = 5.06

[[record]]
compound = "CCCn1c(NC(=O)Cc2ccc(F)cc2)nc2c(F)cccc21"
study_system = "Leishmania infantum MHOM/MA(BE)/67/ITMAP263 amastigotes"
readout_relation = "<"
test_value = 4.19

[[record]]
compound = "CN1CCC(n2c(NC(=O)c3ccnn3C)nc3ccc(C#N)cc32)CC1"
study_system = "Leishmania infantum MHOM/MA(BE)/67/ITMAP263 amastigotes"
readout_relation = "="
test_value = 4.69

[[record]]
compound = "Cn1nccc1C(=O)Nc1nc2ccc(C#N)cc2n1C1CC1"
study_system = "Leishmania infantum MHOM/MA(BE)/67/ITMAP263 amastigotes"
readout_relation = "="
test_value = 4.52

[[record]]
compound = "O=C(Cc1ccc(F)cc1)Nc1nc2cc(F)ccc2n1CCCN1CCOCC1"
study_system = "Leishmania infantum MHOM/MA(BE)/67/ITMAP263 amastigotes"
readout_relation = "="
test_value = 4.63

[[record]]
compound = "O=C(Cc1ccc(Cl)cc1)Nc1nc2ccc(F)cc2n1CC(F)(F)F"
study_system = "Leishmania infantum MHOM/MA(BE)/67/ITMAP263 amastigotes"
readout_relation = "="
test_value = 5.32

[[record]]
compound = "CCn1c(NC(=O)Cc2ccc(F)cc2)nc2ccc(F)cc21"
study_system = "Leishmania infantum MHOM/MA(BE)/67/ITMAP263 amastigotes"
readout_relation = "="
test_value = 5.36

[[record]]
compound = "CCN(CC)CCCn1c(NC(=O)c2ccnn2C)nc2ccc(C#N)cc21"
study_system = "Leishmania infantum MHOM/MA(BE)/67/ITMAP263 amastigotes"
readout_relation = "="
test_value = 4.24

[[record]]
compound = "Cn1nccc1C(=O)Nc1nc2cncnc2n1CC(F)(F)F"
study_system = "Leishmania infantum MHOM/MA(BE)/67/ITMAP263 amastigotes"
readout_relation = "="
test_value = 5.39

[[record]]
compound = "CCN(CC)CCCn1c(NC(=O)Cc2ccc(F)cc2)nc2ccc(C#N)cc21"
study_system = "Leishmania infantum MHOM/MA(BE)/67/ITMAP263 amastigotes"
readout_relation = "<"
test_value = 4.19

[[record]]
compound = "O=C(Cc1ccc(F)cc1)Nc1nc2cc(F)ccc2n1C1CCOCC1"
study_system = "Leishmania infantum MHOM/MA(BE)/67/ITMAP263 amastigotes"
readout_relation = "="
test_value = 4.90

[[record]]
compound = "CC(C)(C)Cn1c(NC(=O)c2cccnc2)nc2ccc(C#N)cc21"
study_system = "Leishmania infantum MHOM/MA(BE)/67/ITMAP263 amastigotes"
readout_relation = "="
test_value = 5.07

[[record]]
compound = "CC(C)(C)Cn1c(NC(=O)c2ccccn2)nc2ccc(C#N)cc21"
study_system = "Leishmania infantum MHOM/MA(BE)/67/ITMAP263 amastigotes"
readout_relation = "="
test_value = 4.83

[[record]]
compound = "Cn1nccc1C(=O)Nc1nc2ccc(C#N)cc2n1CC(F)(F)F"
study_system = "Leishmania infantum MHOM/MA(BE)/67/ITMAP263 amastigotes"
readout_relation = "="
test_value = 5.65

[[record]]
compound = "O=C(Cc1ccc(Cl)cc1)Nc1nc2cc(F)ccc2[nH]1 [Compound 18, Fc1ccc([nH]c(NC(Cc2ccc(Cl)cc2)=O)n3)c3c1]"
study_system = "Leishmania infantum MHOM/MA(BE)/67/ITMAP263 amastigotes"
readout_relation = "<"
test_value = 4.19

[[record]]
compound = "Cn1nccc1C(=O)Nc1nc2ccc(C#N)cc2n1CC(C)(C)C"
study_system = "Leishmania infantum MHOM/MA(BE)/67/ITMAP263 amastigotes"
readout_relation = "="
test_value = 5.39

[[record]]
compound = "CCCn1c(NC(=O)Cc2ccc(Cl)cc2)nc2ccc(F)cc21"
study_system = "Leishmania infantum MHOM/MA(BE)/67/ITMAP263 amastigotes"
readout_relation = "="
test_value = 5.53

